# maps each entry to its minimal effective dose
- Experimental Details: Mouse Writhing Inhibition Assay
- Format: in vivo, Cox standard strain albino male mice
- Condition Parameters: oral gavage 60 min before acetic acid 55 mg./kg. i.p., active = less than ten writhes, read-out: Minimum active oral dose, Mouse Writhing

Check out these entries, answers already filled in.
Cc1ccc(-c2nnc(N3CCC(OS(=O)(=O)c4ccc(C)cc4)CC3)nc2-c2ccc(C)cc2)cc1 [Example 33] | > 200 mg/kg
Cc1ccc(-c2nnc(N3CCC(OC(=O)Oc4ccccc4)CC3)nc2-c2ccc(C)cc2)cc1 [Example 28] | > 200 mg/kg

Next, consider the following molecule.
Suppose we examine the molecule CC(=O)OC1CCN(c2nnc(-c3ccc(Cl)cc3)c(-c3ccc(Cl)cc3)n2)CC1 [Example 13] ; what minimal effective dose value has been reported? > 50 mg/kg

###

- Assayed System: GABA receptor
- Experimental Details: In vitro activation of GABA binding ([3H]GABA, Triton X-100 treated membrane protein)
- Condition Parameters: average of one or more tests, read-out: SC50 GABA (nanomolar concentration producing a 50% increase in binding)
# maps each entry to its pEC50
Quick note: pEC50 means taking -log10 of the concentration in moles per liter.

Check out these entries, answers already filled in.
Cc1ccc(-c2nnc(N3CCOCC3)nc2-c2ccc(C)cc2)cc1 | 6.06
Cc1ccc(-c2nnc(N3CCC(OC=O)CC3)nc2-c2ccc(C)cc2)cc1 | 7.89

Suppose we examine the compound Cc1ccc(-c2nnc(N3CCCC(O)C3)nc2-c2ccc(C)cc2)cc1 (stereo not shown) ; what pEC50 value has been reported? 6.40
